Measured values drawn from paper PMC10298626 for this set.

experiment: in vitro; type: cell-based; conditions: mouse; RAW264.7 cells; 40 μM for 2 h, then LPS (500 ng/mL) 20 h; read-out: Cell viability, Average (%)
Value kind: viability at 22 h, 40 μM (%)
// note: answer is a bare numeric in %

These solved cases illustrate the format of a correct answer.
N#CC1=C(N)Oc2c(c(=O)oc3ccccc23)C1c1ccccc1 (stereo not shown) [Coumarin derivative 23]
118
N#CC1=C(N)Oc2c(c(=O)oc3ccccc23)C1c1ccccc1Cl (stereo not shown) [Coumarin derivative 7]
121
COc1cccc(C2C(C#N)=C(N)Oc3c2c(=O)oc2ccccc32)c1 (stereo not shown) [Coumarin derivative 16]
102
N#CC1=C(N)Oc2c(c(=O)oc3ccccc23)C1c1ccccc1OC(F)(F)F (stereo not shown) [Coumarin derivative 12]
102
N#CC1=C(N)Oc2c(c(=O)oc3ccccc23)C1c1ccc(C(F)(F)F)cc1 (stereo not shown) [Coumarin derivative 6]
111

[ask] Which viability at 22 h, 40 μM reading was recorded for the compound N#CC1=C(N)Oc2c(c(=O)oc3ccccc23)C1c1cccc(Br)c1 (stereo not shown) [Coumarin derivative 19] ?
[reply] 119

[ask] Now the compound N#CC1=C(N)Oc2c(c(=O)oc3ccccc23)C1c1cccc(C#N)c1 (stereo not shown) [Coumarin derivative 21]
[reply] 122

[ask] Try N#CC1=C(N)Oc2c(c(=O)oc3ccccc23)C1c1ccc(Br)cc1 (stereo not shown) [Coumarin derivative 20] next.
[reply] 124

[ask] And the next one, N#CC1=C(N)Oc2c(c(=O)oc3ccccc23)C1c1ccc(Cl)cc1 (stereo not shown) [Coumarin derivative 8] ?
[reply] 107
